Measured EC50 accompanies every entry in the list below.
TESTED_TARGET: CYP11B2 (Homo sapiens (Human), UniProt P19099)
Sequence (P19099 25-503): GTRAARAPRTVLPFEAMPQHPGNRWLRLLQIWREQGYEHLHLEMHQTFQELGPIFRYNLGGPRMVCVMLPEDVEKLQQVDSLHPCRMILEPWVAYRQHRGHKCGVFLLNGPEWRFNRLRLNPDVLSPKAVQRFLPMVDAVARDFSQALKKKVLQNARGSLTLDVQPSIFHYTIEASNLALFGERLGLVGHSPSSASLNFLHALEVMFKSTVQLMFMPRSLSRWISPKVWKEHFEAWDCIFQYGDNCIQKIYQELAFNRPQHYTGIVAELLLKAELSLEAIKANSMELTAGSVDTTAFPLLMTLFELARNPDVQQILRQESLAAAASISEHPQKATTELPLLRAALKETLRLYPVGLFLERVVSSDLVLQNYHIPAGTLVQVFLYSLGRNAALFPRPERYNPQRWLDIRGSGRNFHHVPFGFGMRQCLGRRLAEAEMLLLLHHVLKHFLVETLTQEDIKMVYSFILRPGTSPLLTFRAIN
PROCEDURE_DETAILS: G-402 cellular enzyme assay, human CYP11B2 (aldosterone release, HTRF)
PROTOCOL_CONDITIONS: G-402 cells expressing human CYP11B2, 1 μM Deoxycorticosterone
State the value with its unit after it.

Known EC50 results, listed for orientation:
COMPOUND	TESTED_TARGET	EC50
Cc1ccncc1C(=O)N1CC(Nc2cncc(N3C(=O)c4ccc(Cl)cc4[C@H]3C)c2)C1 (single isomer, unassigned) [Example 25]	CYP11B2 (Homo sapiens (Human), UniProt P19099)	7 nM
Cc1noc(C)c1C(=O)N1CC(Nc2cncc(N3C(=O)c4ccc(Cl)cc4C3(C)C)c2)C1 [Example 23]	CYP11B2 (Homo sapiens (Human), UniProt P19099)	30 nM
CC1(C)c2cc(C#N)ccc2C(=O)N1c1cncc(NC2CCN(S(=O)(=O)C3CC3)CC2)c1 [Example 35]	CYP11B2 (Homo sapiens (Human), UniProt P19099)	24 nM

API: the following record is the query input.
Prompt: Value lookup for EC50; key = CC1c2cc(Cl)ccc2C(=O)N1c1cncc(NC2CN(S(=O)(=O)C3CC3)C2)c1 (stereo not shown) [Example 14]
Response: 131 nM
